- SYSTEM: Aβ42 (Homo sapiens, UniProt P05067)
- Sequence (P05067 672-713): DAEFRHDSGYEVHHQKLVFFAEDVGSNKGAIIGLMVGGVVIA
- RUN DESCRIPTION: Th-T (thioflavin-T) assay of Aβ42 aggregation
- Type: biochemical
- PROTOCOL CONDITIONS: column suffix _10; measurement M22
READOUT KIND: Th-T fluorescence, mean of three wells (Fig. 7a)
Please give the numeric answer without any surrounding text.

# annotated cases, reported Th-T fluorescence, mean of three wells (Fig. 7a) shown
{"COMPOUND": "C=C1CCC2C(C)(CCC=C(C)C)C(O)CCC2(C)C1Cc1c(OC)oc(CO)c(C)c1=O (centres unmarked)", "SYSTEM": "Aβ42 (Homo sapiens, UniProt P05067)", "VALUE REPORTED": 2.671}
{"COMPOUND": "C=C1CCC2C(C)(CCC=C(C)C)C(O)CCC2(C)C1Cc1c(OC)oc(CO)c(C(=O)OC)c1=O (centres unmarked)", "SYSTEM": "Aβ42 (Homo sapiens, UniProt P05067)", "VALUE REPORTED": 0.2441}
{"COMPOUND": "C=C1CC[C@@H]2[C@](C)(CC[C@H]3O[C@H](C=C(C)C)C[C@@]23C)[C@@H]1Cc1c(OC)oc(CO)c(C)c1=O", "SYSTEM": "Aβ42 (Homo sapiens, UniProt P05067)", "VALUE REPORTED": 3.448}
{"COMPOUND": "C=C1CCC2C(C)(CCC=C(C)C)C(O)CCC2(C)C1Cc1c(OC)oc(C)c(C(=O)OC)c1=O (centres unmarked)", "SYSTEM": "Aβ42 (Homo sapiens, UniProt P05067)", "VALUE REPORTED": 2.206}

# next compound below
Report Th-T fluorescence, mean of three wells (Fig. 7a) for C=C1CC[C@@H]2[C@](C)(CC[C@H]3O[C@H](C=C(C)C)C[C@@]23C)[C@@H]1Cc1c(OC)oc(CO)c(C(=O)OC)c1=O tested on Aβ42 (Homo sapiens, UniProt P05067).
0.2318

* * *

- SYSTEM: Aβ42 (Homo sapiens, UniProt P05067)
- RUN DESCRIPTION: Th-T (thioflavin-T) assay of Aβ42 aggregation
- Assay type: biochemical
- PROTOCOL CONDITIONS: column suffix _20; measurement M22
One threshold, 1, splits the recorded Th-T fluorescence, mean of three wells (Fig. 7a) values: lower ones are condition met, equal or higher ones are condition not met.

Please state whether Th-T fluorescence, mean of three wells (Fig. 7a) is below 1 for C=C1CCC2C(C)(CCC=C(C)C)C(O)CCC2(C)C1Cc1c(OC)oc(CO)c(C(=O)OC)c1=O (centres unmarked)
condition met

Does the reported Th-T fluorescence, mean of three wells (Fig. 7a) of C=C1CCC2C(C)(CCC=C(C)C)C(O)CCC2(C)C1Cc1c(OC)oc(C)c(C(=O)OC)c1=O (centres unmarked) stay below 1?
condition not met

Please state whether Th-T fluorescence, mean of three wells (Fig. 7a) is below 1 for C=C1CC[C@@H]2[C@](C)(CC[C@H]3O[C@H](C=C(C)C)C[C@@]23C)[C@@H]1Cc1c(OC)oc(CO)c(C)c1=O
condition not met

Hi there! Is Th-T fluorescence, mean of three wells (Fig. 7a) for C=C1CCC2C(C)(CCC=C(C)C)C(O)CCC2(C)C1Cc1c(OC)oc(CO)c(C)c1=O (centres unmarked) below 1, do you know?
condition not met

Would you kindly verify if Th-T fluorescence, mean of three wells (Fig. 7a) of C=C1CC[C@@H]2[C@](C)(CC[C@H]3O[C@H](C=C(C)C)C[C@@]23C)[C@@H]1Cc1c(OC)oc(CO)c(C(=O)OC)c1=O is strictly less than 1?
condition met

* * *

- SYSTEM: Aβ42 (Homo sapiens)
- RUN DESCRIPTION: Th-T (thioflavin-T) assay of Aβ42 aggregation
- Type: biochemical
- PROTOCOL CONDITIONS: time-course reading M110; Supplementary Fig. 47 source data
READOUT KIND: Th-T fluorescence, mean of three wells
// no unit string in output, number only

Reported Th-T fluorescence, mean of three wells, molecule C=C1CC[C@H]2[C@]3(C)C[C@H](C=C(C)C)O[C@H]3CC[C@]2(C)[C@@H]1Cc1c(OC)oc(CO)c(C)c1=O [Compound 18] : ____
3.872

Reported Th-T fluorescence, mean of three wells, molecule C=C1CCC2C(C)(CC(=O)C=C(C)C)C(O)CCC2(C)C1Cc1c(OC)oc(C)c(C)c1=O (stereo not shown) [Compound 25] : ____
3.606

Endpoint output: Th-T fluorescence, mean of three wells of C=C1CC[C@@H]2[C@](C)(CC[C@H]3O[C@H](C=C(C)C)C[C@@]23C)[C@@H]1Cc1c(O)c(C)c(C)oc1=O [Compound 10, higginsianin A] . Value?
3.022

Any idea what its Th-T fluorescence, mean of three wells is? The molecule is C=C1CCC2C(C)(CCC=C(C)C)C(O)CCC2(C)C1Cc1c(OC)oc(C)c(C)c1=O (stereo not shown) [Compound 11]
3.498

What does the record list as Th-T fluorescence, mean of three wells for C=C1CCC2C(C)(CC(=O)C=C(C)C)C(O)CCC2(C)C1Cc1c(OC)oc(CO)c(C)c1=O (stereo not shown) [Compound 19] ?
3.642

Would you mind telling me what Th-T fluorescence, mean of three wells value was observed for C=C1CC[C@H]2[C@]3(C)C[C@@H](C=C(C)C)O[C@H]3CC[C@]2(C)[C@@H]1Cc1c(OC)oc(CO)c(C)c1=O [Compound 17] ?
3.7

Give its Th-T fluorescence, mean of three wells value. Item: C=C1CCC2C(C)(CCC=C(C)C)C(O)CCC2(C)C1Cc1c(OC)oc(CO)c(C)c1=O (stereo not shown) [Compound 12]
2.071

I'd like to know its Th-T fluorescence, mean of three wells. The molecule in question is C=C1CC[C@@H]2[C@](C)(CC[C@H]3O[C@H](C=C(C)C)C[C@@]23C)[C@@H]1Cc1c(OC)oc(CO)c(C(=O)OC)c1=O [Compound 21]
1.043

Please report the recorded Th-T fluorescence, mean of three wells for C=C1CCC2C(C)(CCC=C(C)C)C(O)CCC2(C)C1Cc1c(OC)oc(C)c(C)c1=O (stereo not shown) [Compound 15, viridoxin A hydrolysate] .
3.309

Any idea what its Th-T fluorescence, mean of three wells is? The molecule is C=C1CCC2C(C)(CC(=O)C=C(C)C)C(O)CCC2(C)C1Cc1c(O)c(C)c(C)oc1=O (stereo not shown) [Compound 7]
3.516

* * *

- SYSTEM: Aβ42 (Homo sapiens, UniProt P05067)
- RUN DESCRIPTION: Th-T (thioflavin-T) assay of Aβ42 aggregation
- Assay type: biochemical
- PROTOCOL CONDITIONS: reading M123; compound at 10 (head suffix _10)
READOUT KIND: Th-T fluorescence, mean of three wells (Fig. 7a)
The response must contain the number and no unit.

{"COMPOUND": "C=C1CCC2C(C)(CCC=C(C)C)C(O)CCC2(C)C1Cc1c(OC)oc(CO)c(C(=O)OC)c1=O (centres unmarked) [Compound 13]", "VALUE REPORTED": 1.5409}
{"COMPOUND": "C=C1CC[C@@H]2[C@](C)(CC[C@H]3O[C@H](C=C(C)C)C[C@@]23C)[C@@H]1Cc1c(OC)oc(CO)c(C)c1=O [Compound 20]", "VALUE REPORTED": 3.204}
{"COMPOUND": "C=C1CC[C@@H]2[C@](C)(CC[C@H]3O[C@H](C=C(C)C)C[C@@]23C)[C@@H]1Cc1c(OC)oc(CO)c(C(=O)OC)c1=O [Compound 21]", "VALUE REPORTED": 1.651}

Consider the compound C=C1CCC2C(C)(CCC=C(C)C)C(O)CCC2(C)C1Cc1c(OC)oc(C)c(C(=O)OC)c1=O (centres unmarked) [Compound 14] and give its measured Th-T fluorescence, mean of three wells (Fig. 7a).
2.8989

Need Th-T fluorescence, mean of three wells (Fig. 7a), item C=C1CCC2C(C)(CCC=C(C)C)C(O)CCC2(C)C1Cc1c(OC)oc(CO)c(C)c1=O (centres unmarked) [Compound 12]
2.493

* * *

- RUN DESCRIPTION: cytotoxicity in Drosophila DL1 cells
- Type: cell-based
- PROTOCOL CONDITIONS: Drosophila, DL1 cells (embryonic macrophage-derived), DL1 cells, 10 µM, replicate 1, relative to DMSO 1%; read-out: % viability, viability 1
// NB: equality with 7% counts as rule not met; only viability at 10 µM strictly below is rule met

Observe how each entry below is paired with its result.
{"COMPOUND": "C=C1CCC2C3(C)CC(C=C(C)C)OC3CCC2(C)C1Cc1c(OC)oc(C)c(C)c1=O (centres unmarked)", "CLASS NAME": "rule met"}
{"COMPOUND": "C=C1CCC2C(C)(CCC=C(C)C)C(O)CCC2(C)C1Cc1c(OC)oc(C)c(C(=O)OC)c1=O (centres unmarked)", "CLASS NAME": "rule met"}
{"COMPOUND": "C=C1CC[C@H]2[C@]3(C)C[C@@H](C=C(C)C)O[C@H]3CC[C@]2(C)[C@@H]1Cc1c(OC)oc(CO)c(C)c1=O", "CLASS NAME": "rule not met"}

Take the compound C=C1CCC2C(C)(CC(=O)C=C(C)C)C(O)CCC2(C)C1Cc1c(OC)oc(C)c(C)c1=O (centres unmarked) and say whether its viability at 10 µM is less than 7%.
rule not met

# check: viability at 10 µM < 7% for C=C1CC[C@@H]2[C@](C)(CC[C@H]3O[C@H](C=C(C)C)C[C@@]23C)[C@@H]1Cc1c(OC)oc(CO)c(C(=O)OC)c1=O
rule met

I'd appreciate it if you could check whether C=C1CCC2C(C)(CC(=O)C=C(C)C)C(O)CCC2(C)C1Cc1c(OC)oc(CO)c(C)c1=O (centres unmarked) has viability at 10 µM smaller than 7%.
rule not met

Dear colleague, could you confirm whether viability at 10 µM of C=C1CCC2C(C)(CCC=C(C)C)C(=O)CCC2(C)C1Cc1c(O)c(C)c(C)oc1=O (centres unmarked) falls below 7%? Thanks.
rule not met
